Attribution: PubChem BioAssay AID652154

test.name: PAX8 transcriptional activity inhibition in RMG-I – RMG-I cells, luciferase, single concentration, primary screen (AID 652154);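 also: luciferase light reporting Pax8 driven TPO promoter activity; plate controls were median of neutral control wells for no effect and mitoxantrone controls for full effect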
settings: RMG-I TPO-luciferase reporter, SteadyGlo, 24 h; at 12.6 µM
In all, about 360,000 compounds went through this assay and about 4,200 (1.2%) were called active.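 The calls were made as follows: active = mean replicate inhibition at least 60% with every replicate also reaching 60%; inconclusive = only one of the two criteria is met; inactive = mean below 60% and not all replicates reaching 60%.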 This is one part of a sample in which actives are shown more often than they occur.
API: response.call in active, inactive

Answered cases to consult:
INSERT INTO results (molecule, assigned_category) VALUES
  ('C=CCC[C@@H](Cc1ccc(F)cc1)C(=O)OC[C@@H](C)NC(=O)[C@H](CC=C)CC(=O)N(CCO)Cc1ccccc1', 'inactive'),
  ('C=CCC[C@H](Cc1ccc(F)cc1)C(=O)OC[C@@H](Cc1c[nH]c2ccccc12)NC(=O)[C@H](CC=C)CC(=O)N[C@H](CO)Cc1ccccc1', 'active'),
  ('O=C(C[C@H]1CC[C@@H]2[C@H](COC[C@H](O)CN2C(=O)c2ccc3c(c2)OCO3)O1)NC1CCC1', 'inactive'),
  ('COc1ccc2nc3n(c(=O)c2c1)-c1ccc(Cl)cc1C(=O)NC3Cc1ccccc1 (stereo not drawn)', 'active'),
  ('COc1ccc(/C=C/C(=O)OCC(=O)NCc2cccs2)cc1OC', 'active'),
  ('O=C1NC(Cc2ccccc2)c2nc3ccc(Br)cc3c(=O)n2-c2cc3ccccc3cc21 (stereo not drawn)', 'inactive'),
  ('O=C(C[C@H]1CC[C@@H](NC(=O)Nc2ccc(C(F)(F)F)cc2)[C@H](CO)O1)NCc1cc(F)cc(F)c1', 'inactive'),
  ('C=CCC[C@H](Cc1ccc(F)cc1)C(=O)OC[C@H](C)NC(=O)[C@H](CC=C)CC(=O)N(CCO)Cc1ccccc1', 'inactive'),
  ('O=C(CCc1c[nH]c2ccccc12)NCCOc1ccccc1', 'inactive'),
  ('CN(C)CCN1CCN(c2cc(-c3cccc(Cl)c3)nc3ccnn23)CC1', 'inactive');

Then there is this molecule:
How was C[C@H](NC(=O)C[C@H]1C=C[C@H](NS(=O)(=O)c2cccc(F)c2)[C@@H](CO)O1)c1ccccc1 classified in this test?
inactive

----------
This listing pairs compounds with measured inhibition.
test.name: PAX8 transcriptional activity inhibition in RMG-I – RMG-I cells, luciferase, single concentration, primary screen (AID 652154);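 also: luciferase light reporting Pax8 driven TPO promoter activity; plate controls were median of neutral control wells for no effect and mitoxantrone controls for full effect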
settings: RMG-I TPO-luciferase reporter, SteadyGlo, 24 h; at 12.6 µM; hits give high values
About 4,200 (1.2%) of roughly 360,000 compounds were called active. Only a selection was taken, and actives are over-represented in it overall.
Number in %, nothing else.

Sample answers from the record:
INSERT INTO assay_data (chemical_smiles, numeric_result) VALUES
  ('O=C(Cc1ccccn1)N1[C@@H]2CNc3ccccc3[C@@H]2[C@@H]1CO', -15.2),
  ('O=C(Nc1ccccn1)C1CCN(S(=O)(=O)c2ccccc2)CC1', -150);

Give the reported value of inhibition for this record: COCC(=O)N(C)C[C@@H]1Oc2cc(C#Cc3cccnc3)ccc2S(=O)(=O)N([C@H](C)CO)C[C@H]1C
6.54

Give the reported value of inhibition for this record: Cc1ccnc(NC(=O)C2CCN(S(=O)(=O)c3c(C)c(C)cc(C)c3C)CC2)c1
74.9

Give the reported value of inhibition for this record: N#C[C@@H]1[C@@H](c2ccc(C3=CCCC3)cc2)[C@@H](CO)N1C(=O)C1CCCC1
3.84

Give the reported value of inhibition for this record: O=C(NCC1CC1)[C@@H]1[C@@H](CO)[C@@H]2Cn3c(ccc(C4=CCCC4)c3=O)[C@H]1N2CCC(F)(F)F
-4.22

Give the reported value of inhibition for this record: S=c1[nH]nc(-c2cccnc2)n1/N=C/C(Cl)=C\c1ccccc1
72.4

Give the reported value of inhibition for this record: CC(C)NC(=O)N[C@@H]1CC[C@H](CCn2cc(-c3ccccc3)nn2)O[C@H]1CO
-6.01

Give the reported value of inhibition for this record: Cc1ccc(S(=O)(=O)Nc2cccc3c2O[C@H](CN(C)CC2CCCCC2)[C@H](C)CN([C@H](C)CO)C3=O)cc1
-4.8
